Listing: TD50 of selected molecules
# Assay remarks: in vivo
# Condition notes: Frings, mouse, in vivo, ip
# Method: In this assay, Frings and CF1 mice were injected with test compound and placed on a knurled rod which rotated at a speed of 6 rpm. The ability of the mice to maintain equilibrium for long periods of time was determined; those mice that were unable to maintain equilibrium on the rotorod for 1 min in each of 3 trials were considered impaired.
Where a name gives a salt, the structure may show the parent alone.
# value in mg/kg; strip the unit string

Example entries and their recorded answers appear below.
Cc1ccc(F)cc1C(CCN)c1cc(F)ccc1C [Compound 58] : 14.5
NCCC(Oc1cccc(F)c1)c1cccc(F)c1 (stereo not shown) [Compound 119] : 26.3
COc1ccccc1C(CCN)c1cccc(F)c1 (stereo not shown) [Compound 24] : 16
NCCC1c2ccccc2CCc2ccccc21 [Compound 156, hydrochloride] : 17.4
CNCCC(c1cccc(F)c1)c1cccc(F)c1 [Compound 60] : 9.2

For the next question, use this molecule.
Lab note: CC(CN)C(c1cccc(F)c1)c1cccc(F)c1 (stereo not shown) [Compound 21] gave TD50 of 15.3

###

# Target or system: NMDA receptor-ionophore complex (site labeled by [3H]MK-801)
# Assay remarks: Inhibition of [3H]MK-801 binding in rat cortical/hippocampal washed membrane preparations
# Condition notes: read-out: IC50 (μM) vs. [3H]MK-801; rat cortical/hippocampal washed membranes
Observable: IC50 (µM)
# value in µM; strip the unit string

NCCC(c1cccc(F)c1)c1cccs1 (stereo not drawn) [Compound 83] : 0.794
CC(NCCC(c1cccc(F)c1)c1cccc(F)c1)c1ccccc1 (stereo not drawn) [Compound 93] : 26.9
NCCCC(c1cccc(F)c1)c1cccc(F)c1 [Compound 100, 4,4-bis(3-fluorophenyl)-1-butylamine] : 3.2

Lab note: NCCC(c1cccc(F)c1)c1ccccc1O (stereo not drawn) [Compound 103] gave IC50 of 0.661

Lab note: NCCC(c1cccc(F)c1)c1cc(F)cc(F)c1 (stereo not drawn) [Compound 96] gave IC50 of 1.1

Lab note: CCNCCC(c1cccc(F)c1)c1cccc(F)c1 [Compound 59] gave IC50 of 0.453

###

# Target or system: NMDA receptor-ionophore complex (site labeled by [3H]MK-801)
# Assay remarks: Inhibition of [3H]MK-801 binding in rat cortical/hippocampal washed membrane preparations
# Condition notes: read-out: IC50 (μM) vs. [3H]MK-801; rat cortical/hippocampal washed membranes
Listing: IC50 of selected compounds
Kindly format the answer as number then unit.

c1ccc(C(CCNC(c2ccccc2)C2CC2)c2ccccc2)cc1 (stereo not drawn) : 39.6 µM
Cc1c(F)cccc1C(CCN)c1cccc(F)c1 (stereo not drawn) : 0.955 µM
NCCC(Oc1ccccc1)c1cccc(Cl)c1 (stereo not drawn) : 0.373 µM
Cc1ccc(F)cc1C(CCN)c1cccc(F)c1 (stereo not drawn) : 0.063 µM
NCCC1c2ccccc2Oc2ccccc21 : 7.05 µM
Cc1cccc(C(CCN)c2cccc(F)c2)c1 (stereo not drawn) : 2.3 µM
COc1cccc(/C(=C\CN)c2cccc(F)c2)c1 : 8.97 µM
NCCN(c1ccccc1)c1ccccc1 : 6 µM
C[C@H](N)CC(c1cccc(F)c1)c1cccc(F)c1 : 0.762 µM
CCC(NCCC(c1ccccc1)c1ccccc1)c1cccc(Br)c1 (stereo not drawn) : 5.62 µM

Field IC50 (system: NMDA receptor-ionophore complex (site labeled by [3H]MK-801)) for entry NCCC(c1ccncc1)c1cccc(F)c1 (stereo not drawn) = 10.2 µM

Field IC50 (system: NMDA receptor-ionophore complex (site labeled by [3H]MK-801)) for entry OC1(C(c2cccc(F)c2)c2cccc(F)c2)CCNC1 (stereo not drawn) = 23.4 µM

###

Listing: IC50 of selected molecules
# Target or system: NMDA receptor-ionophore complex (site labeled by [3H]MK-801)
# Assay remarks: Inhibition of [3H]MK-801 binding in rat cortical/hippocampal washed membrane preparations
# Condition notes: read-out: IC50 (μM) vs. [3H]MK-801; rat cortical/hippocampal washed membranes
# value in µM; strip the unit string

CNCCC(c1ccccc1)c1cccc(F)c1 (stereo not drawn) [Compound 108] : 0.942

Lab note: NCCC(c1ccccc1)c1cccc(F)c1 (stereo not drawn) [Compound 32] gave IC50 of 0.799

Lab note: CNCCC(Oc1cccc(F)c1)c1cccc(F)c1 (stereo not drawn) [Compound 145] gave IC50 of 0.626

Lab note: Fc1cccc(C(c2cccc(F)c2)C2CCNC2)c1 (stereo not drawn) [Compound 102] gave IC50 of 3.3

Lab note: COc1ccccc1CC(=O)NC(CC(N)=O)C(=O)NCCCCCNCCCNCCCNC(=O)C(N)CCCNC(=N)N (stereo not drawn) [Compound 5] gave IC50 of 15.2

###

# Target or system: NMDA receptor-ionophore complex (site labeled by [3H]MK-801)
# Assay remarks: Inhibition of [3H]MK-801 binding in rat cortical/hippocampal washed membrane preparations
# Condition notes: read-out: IC50 (μM) vs. [3H]MK-801; rat cortical/hippocampal washed membranes
IC50 vs 5 µM: less than gives MET; not less than gives NOT MET.

Recorded results for 5 compounds are shown here.
Fc1cccc(C(c2cccc(F)c2)C2CCNCC2)c1 : NOT MET
Fc1cccc(C(c2cccc(F)c2)C2CCCNC2)c1 (centres unmarked) : MET
NCCC(c1cccc(F)c1)c1cccc(Cl)c1 (centres unmarked) : MET
CCC(NCCC(c1ccccc1)c1ccccc1)c1cccc(F)c1 (centres unmarked) : NOT MET
CCC(NCCC(c1ccccc1)c1ccccc1)c1ccc(Cl)cc1 (centres unmarked) : NOT MET

Data request: Report whether reported IC50 is lower than 5 µM (strictly) for CNCCCC1c2ccccc2C=Cc2ccccc21 [protriptyline, reference compound]
Data returned: NOT MET

Data request: Report whether reported IC50 is lower than 5 µM (strictly) for NCCCC(c1ccc(F)cc1)c1ccc(F)cc1
Data returned: NOT MET

Data request: Report whether reported IC50 is lower than 5 µM (strictly) for C[C@H](CN)C(c1cccc(F)c1)c1cccc(F)c1
Data returned: MET

Data request: Report whether reported IC50 is lower than 5 µM (strictly) for N=C(N)NCCCC(N)C(=O)NCCCNCCCNCCCCCNC(=O)C(CC(N)=O)NC(=O)Cc1ccc(O)cc1O (centres unmarked)
Data returned: NOT MET

Data request: Report whether reported IC50 is lower than 5 µM (strictly) for C[C@H](C(c1ccccc1)c1ccccc1)[C@@H](C)N
Data returned: NOT MET

Data request: Report whether reported IC50 is lower than 5 µM (strictly) for NCC(Cc1ccccc1)c1ccccc1 (centres unmarked)
Data returned: MET

Data request: Report whether reported IC50 is lower than 5 µM (strictly) for CCC(NCCC(c1ccccc1)c1ccccc1)c1cccc(C)c1 (centres unmarked)
Data returned: NOT MET

###

# Target or system: dopamine uptake site (Cavia porcellus)
# Construct: from tissue; host or cells: guinea pig striatal membranes (per the assay title)
# Sequence (H0WCX4 1-619): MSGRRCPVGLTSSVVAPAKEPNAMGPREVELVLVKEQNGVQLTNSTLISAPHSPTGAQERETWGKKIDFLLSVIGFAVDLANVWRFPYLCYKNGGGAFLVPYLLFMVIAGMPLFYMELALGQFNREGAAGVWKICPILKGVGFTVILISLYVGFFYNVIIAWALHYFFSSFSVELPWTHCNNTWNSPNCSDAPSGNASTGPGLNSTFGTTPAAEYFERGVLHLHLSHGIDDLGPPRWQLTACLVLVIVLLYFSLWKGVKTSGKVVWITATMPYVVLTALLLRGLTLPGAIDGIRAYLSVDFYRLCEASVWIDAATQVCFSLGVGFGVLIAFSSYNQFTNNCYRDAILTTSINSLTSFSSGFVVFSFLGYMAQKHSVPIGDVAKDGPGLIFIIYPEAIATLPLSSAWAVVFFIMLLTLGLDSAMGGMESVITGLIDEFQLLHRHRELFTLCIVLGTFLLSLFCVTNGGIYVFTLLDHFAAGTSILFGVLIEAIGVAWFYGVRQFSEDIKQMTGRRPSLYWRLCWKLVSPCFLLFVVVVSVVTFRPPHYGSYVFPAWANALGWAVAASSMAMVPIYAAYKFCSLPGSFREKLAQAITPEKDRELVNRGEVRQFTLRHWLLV
# Assay remarks: Dopamine uptake binding assay: [3H]WIN-35,428 binding to guinea pig striatal membranes
# Condition notes: at 0.1 μM
Decide using Monoamine uptake binding assays: dopamine uptake binding assay, percent block: a value greater than or equal to 20 % at is 1.0, a smaller one is 0.0.

Recorded results for 3 compounds are shown here.
N[C@H]1CCCC1C(c1cccc(F)c1)c1cccc(F)c1 (stereo partly drawn) : 1.0
CC(CN)C(c1cccc(Cl)c1)c1cccc(Cl)c1 (stereo not drawn) : 1.0
CCNCCC(c1cccc(F)c1)c1cccc(F)c1 : 0.0

Data request: Could you verify whether the entry C[C@@H](CN)C(c1cccc(F)c1)c1cccc(F)c1 shows Monoamine uptake binding assays: dopamine uptake binding assay, percent block of no less than 20 % at?
Data returned: 1.0

Data request: Could you verify whether the entry NCCC(c1cccc(F)c1)c1cccc(F)c1 shows Monoamine uptake binding assays: dopamine uptake binding assay, percent block of no less than 20 % at?
Data returned: 0.0

Data request: Could you verify whether the entry C[C@H](N)CC(c1cccc(F)c1)c1cccc(F)c1 shows Monoamine uptake binding assays: dopamine uptake binding assay, percent block of no less than 20 % at?
Data returned: 0.0

Data request: Could you verify whether the entry C[C@H](CN)C(c1cccc(F)c1)c1cccc(F)c1 shows Monoamine uptake binding assays: dopamine uptake binding assay, percent block of no less than 20 % at?
Data returned: 1.0

Data request: Could you verify whether the entry N[C@@H]1CCCC1C(c1cccc(F)c1)c1cccc(F)c1 (stereo partly drawn) shows Monoamine uptake binding assays: dopamine uptake binding assay, percent block of no less than 20 % at?
Data returned: 1.0

Data request: Could you verify whether the entry Cc1ccc(F)cc1C(CCN)c1cc(F)ccc1C shows Monoamine uptake binding assays: dopamine uptake binding assay, percent block of no less than 20 % at?
Data returned: 0.0

###

# Assay remarks: in vivo
# Condition notes: rat, po
Observable: TD50 (mg/kg)
# value in mg/kg; strip the unit string

Lab note: COc1ccccc1C(CCN)c1cccc(F)c1 (centres unmarked) gave TD50 of 51

###

# Test system: central muscarinic cholinergic receptor
# Format: binding, rat
# Condition notes: at 10 μM
Observable: Central muscarinic cholinergic receptor: percent block of [3H]QNB binding

N[C@H]1CCCC1C(c1cccc(F)c1)c1cccc(F)c1 (some centres unmarked) [Compound 63] : 0.181% at
Cc1ccc(F)cc1C(CCN)c1cc(F)ccc1C [Compound 58] : 0.148% at
C[C@H](N)CC(c1cccc(F)c1)c1cccc(F)c1 [Compound 50] : 0.184% at
N[C@@H]1CCCC1C(c1cccc(F)c1)c1cccc(F)c1 (some centres unmarked) [Compound 64] : 0.183% at
CC(CN)C(c1cccc(Cl)c1)c1cccc(Cl)c1 (centres unmarked) [Compound 46] : 0.189% at

Lab note: NCCC(c1ccccc1)c1ccccc1 [Compound 19, 3,3-diphenylpropylamine] gave Central muscarinic cholinergic receptor: percent block of [3H]QNB binding of 0.174%

Lab note: CCNCCC(c1cccc(F)c1)c1cccc(F)c1 [Compound 59] gave Central muscarinic cholinergic receptor: percent block of [3H]QNB binding of 0.187% at

Lab note: CNCCC(c1cccc(F)c1)c1cccc(F)c1 [Compound 60] gave Central muscarinic cholinergic receptor: percent block of [3H]QNB binding of 0.193% at

Lab note: C[C@H](CN)C(c1cccc(F)c1)c1cccc(F)c1 [Compound 34] gave Central muscarinic cholinergic receptor: percent block of [3H]QNB binding of 0.199% at

Lab note: NCCC(c1cccc(F)c1)c1cccc(F)c1 [Compound 20, 3,3-bis(3-fluorophenyl)-1-propylamine] gave Central muscarinic cholinergic receptor: percent block of [3H]QNB binding of 0.190% at

Lab note: C[C@@H](CN)C(c1cccc(F)c1)c1cccc(F)c1 [Compound 33] gave Central muscarinic cholinergic receptor: percent block of [3H]QNB binding of 0.199% at
